Source listed as paper PMC6747318.

We begin with a simple list: items and their reported Kd.
# ASSAY PROCEDURE: UV spectroscopy binding between compounds: binding to ascorbic acid
# COND: read-out: Kd @ 200 nm, binding to Asc, pH 7.4 sodium phosphate buffer

Solved entries:
SMILES REPR	Kd
CNC[C@H](O)c1cccc(O)c1	> 1000 µM
CC(=O)OCC[N+](C)(C)C	> 1000 µM
NCCc1c[nH]cn1	> 1000 µM
COc1cc(CC(=O)O)ccc1O	> 1000 µM
N[C@@H](Cc1ccccc1)C(=O)O	> 1000 µM

If you can, please state the reported Kd value of NCCc1c[nH]c2ccc(O)cc12 .
> 1000 µM
